The reader will find reported viability at 10 µM values listed item by item below.
# System: NIH: OVCAR-3
# assay: Cell viability analysis, ovarian cancer NIH: OVCAR-3
# Type: cell-based, human
# test.conditions: Homo sapiens, OVCAR-3, 72 h, read-out: The results of antibiotic drug inhibiting cancer cell lines (cell viability analysis), NIH-OVCAR-3

compound | viability at 10 µM, %
Clc1ccc(COC(Cn2ccnc2)c2ccc(Cl)cc2Cl)c(Cl)c1 (stereo not drawn) [Miconazole nitrate] | 94.8
C=C1[C@H](CO)[C@@H](O)C[C@@H]1n1cnc2c(=O)[nH]c(N)nc21 [Entecavir hydrate] | 109
Clc1ccc(C(Cn2ccnc2)OCc2ccsc2Cl)c(Cl)c1 (stereo not drawn) | 92.5

====

# Test system: HCT116 (p53+) (Colorectal Carcinoma)

molecule | viability
COc1cc(NC(C)CCCN)c2ncccc2c1 (stereo not drawn) [Primaquine Diphosphate] | 60.9%
Cl.c1ccc([C@H]2CN3CCSC3=N2)cc1 [Levamisole Hydrochloride (Ergamisol)] | 116%
CCC[C@H](NC(=O)[C@@H]1[C@H]2CCC[C@H]2CN1C(=O)[C@@H](NC(=O)[C@@H](NC(=O)c1cnccn1)C1CCCCC1)C(C)(C)C)C(=O)C(=O)NC1CC1 | 93.6%
